molecular target: Estrogen receptor (Homo sapiens); assay: qHTS assay to identify small molecule agonists of the estrogen receptor alpha (ER-alpha) signaling pathway (AID 743075); conditions: HEK293 ER-alpha-UAS-bla, beta-lactamase FRET ratio, 18 h; series mostly up to 70.1 µM;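 also: HEK293 GripTite cells with ER-alpha and UAS-driven beta-lactamase reporter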
Results filed as inconclusive are left out. Activity calls are given as the source filed them. Calls follow the shape of the full dose curve.
endpointLabel: outcome

Recorded results for 8 molecules are shown here.
[
  {
    "molecule": "COc1ccc(NS(=O)(=O)c2ccc(N)cc2)nn1",
    "testSystem": "Estrogen receptor (Homo sapiens)",
    "outcome": "inactive"
  },
  {
    "molecule": "CN(C)CCOCCN(C)CCO",
    "testSystem": "Estrogen receptor (Homo sapiens)",
    "outcome": "inactive"
  },
  {
    "molecule": "O=C(/C=C/c1ccccc1)NCCO",
    "testSystem": "Estrogen receptor (Homo sapiens)",
    "outcome": "inactive"
  },
  {
    "molecule": "CCCCCCCCCCCCCC(=O)OC",
    "testSystem": "Estrogen receptor (Homo sapiens)",
    "outcome": "inactive"
  },
  {
    "molecule": "CO[Si](CCCCl)(OC)OC",
    "testSystem": "Estrogen receptor (Homo sapiens)",
    "outcome": "inactive"
  },
  {
    "molecule": "O=P(O)(O)OCC(O)CO (centres undefined)",
    "testSystem": "Estrogen receptor (Homo sapiens)",
    "outcome": "inactive"
  },
  {
    "molecule": "CCOC(=O)CC#N",
    "testSystem": "Estrogen receptor (Homo sapiens)",
    "outcome": "inactive"
  },
  {
    "molecule": "CCC(=O)c1ccc(O)cc1",
    "testSystem": "Estrogen receptor (Homo sapiens)",
    "outcome": "inactive"
  }
]

Next item in the queue.
outcome for O=C(O)CCNC(=O)c1ccccc1 ?
inactive
